Numbers sourced from patent US20190062438A1.

- TESTED_TARGET: T1, human CD131 (human, UniProt P32927 17-897)
- T1 sequence: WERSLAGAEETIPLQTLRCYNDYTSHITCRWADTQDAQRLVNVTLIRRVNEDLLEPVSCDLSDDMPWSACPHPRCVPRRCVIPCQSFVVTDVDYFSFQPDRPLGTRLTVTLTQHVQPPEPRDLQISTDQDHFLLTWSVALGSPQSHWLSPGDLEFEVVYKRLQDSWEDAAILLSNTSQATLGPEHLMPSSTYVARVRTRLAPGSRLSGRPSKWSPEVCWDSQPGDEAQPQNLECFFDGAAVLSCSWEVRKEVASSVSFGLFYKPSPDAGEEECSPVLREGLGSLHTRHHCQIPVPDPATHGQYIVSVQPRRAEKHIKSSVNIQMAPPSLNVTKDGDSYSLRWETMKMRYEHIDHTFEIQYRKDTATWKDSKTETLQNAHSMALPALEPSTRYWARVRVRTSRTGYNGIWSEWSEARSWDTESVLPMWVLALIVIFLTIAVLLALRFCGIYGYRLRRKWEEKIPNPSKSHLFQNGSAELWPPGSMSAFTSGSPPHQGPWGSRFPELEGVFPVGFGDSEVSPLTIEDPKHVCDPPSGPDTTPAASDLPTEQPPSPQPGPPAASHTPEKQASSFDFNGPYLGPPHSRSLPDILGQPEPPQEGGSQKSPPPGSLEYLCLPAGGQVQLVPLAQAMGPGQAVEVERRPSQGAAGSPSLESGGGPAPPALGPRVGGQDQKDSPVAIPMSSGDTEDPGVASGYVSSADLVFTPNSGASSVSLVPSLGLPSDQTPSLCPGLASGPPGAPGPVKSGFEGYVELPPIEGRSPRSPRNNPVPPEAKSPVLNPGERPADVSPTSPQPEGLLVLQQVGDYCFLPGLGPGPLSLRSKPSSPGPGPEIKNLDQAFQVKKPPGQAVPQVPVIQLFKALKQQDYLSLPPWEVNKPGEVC
- METHOD_NOTES: cell-based or functional assay
ENDPOINT_NAME: IC50 GM-CSF, TF-1 proliferation (nM)
Express it in nM; write the number only.

Some solved entries appear below for comparison.
# BINDER, IC50 GM-CSF, TF-1 proliferation, nM
data = [
    ("9A2-VR6 (antibody, V domains shown) VH: EVQLLESGGGLVQPGGSLRLSCAASGFTFSHYHMLWVRQAPGKGLEWVSSIRSSGGFTYYADSVKGRFTISRDNSKNTLYLQMNSLRAEDTAVYYCARFYDSFFDIWGQGTMVTVSS VL: DIQMTQSPSSVSASVGDRVTITCRASQGVRPFVNWYQQKPGKAPKLLIYAASSLQSGVPSRFSGSGSGTDFTLTISSLQPEDFATYYCQQANSFPITFGQGTRLEIKR", 250),
    ("9A2 (antibody, IgG4, V domains shown, IgG4pK (IgG4 S241P, kappa); also called parental 9A2) VH: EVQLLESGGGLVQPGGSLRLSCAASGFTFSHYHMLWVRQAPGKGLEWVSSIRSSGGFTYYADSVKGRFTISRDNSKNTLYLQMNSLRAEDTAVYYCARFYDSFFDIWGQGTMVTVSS VL: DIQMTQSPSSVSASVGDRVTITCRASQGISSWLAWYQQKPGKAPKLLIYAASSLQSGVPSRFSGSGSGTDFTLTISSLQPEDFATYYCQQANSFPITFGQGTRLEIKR", 456),
    ("9A2-VR28 (antibody, V domains shown) VH: EVQLLESGGGLVQPGGSLRLSCAASGFTFVHYRVHWVRQAPGKGLEWVSSIRSSGGFTYYADSVKGRFTISRDNSKNTLYLQMNSLRAEDTAVYYCARFYDSFFDIWGQGTMVTVSS VL: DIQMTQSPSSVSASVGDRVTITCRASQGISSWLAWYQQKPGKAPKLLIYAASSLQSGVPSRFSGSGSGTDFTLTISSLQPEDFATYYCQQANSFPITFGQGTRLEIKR", 47.9),
]

Provide only the value of recorded IC50 GM-CSF, TF-1 proliferation for 9A2-VR48 (antibody, V domains shown) VH: EVQLLESGGGLVQPGGSLRLSCAASGFTFSHYHMLWVRQAPGKGLEWVSSIRSSGGFTYYADSVKGRFTISRDNSKNTLYLQMNSLRAEDTAVYYCARFYSDHFKPWGQGTMVTVSS VL: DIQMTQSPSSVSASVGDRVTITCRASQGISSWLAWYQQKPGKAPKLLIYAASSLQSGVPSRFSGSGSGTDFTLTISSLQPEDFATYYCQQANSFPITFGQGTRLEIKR
11.7

Provide only the value of recorded IC50 GM-CSF, TF-1 proliferation for 9A2-VR2 (antibody, V domains shown) VH: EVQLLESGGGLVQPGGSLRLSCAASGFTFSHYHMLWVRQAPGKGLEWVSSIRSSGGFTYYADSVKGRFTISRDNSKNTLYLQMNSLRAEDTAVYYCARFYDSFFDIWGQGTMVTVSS VL: DIQMTQSPSSVSASVGDRVTITCRASQGQRPFVSWYQQKPGKAPKLLIYAASSLQSGVPSRFSGSGSGTDFTLTISSLQPEDFATYYCQQANSFPITFGQGTRLEIKR
444
